- System: P388
- procedure summary: Inhibitory activity was tested against P388 cells
- Type: functional, cell-based
- experimental context: Mus musculus
pIC50: −log10 of the molar value.
reported metric: pIC50

| smiles text | reported metric | meas value |
| --- | --- | --- |
| O=C1/C(=C/c2cccc(Cl)c2)Cc2ccccc21 | pIC50 | 4.58 |
| Cc1ccc(/C=C2\Cc3ccccc3C2=O)cc1 | pIC50 | 4.41 |
| O=C1/C(=C/c2ccccc2)CCCc2ccccc21 | pIC50 | 4.90 |
| Cc1cccc(/C=C2\Cc3ccccc3C2=O)c1 | pIC50 | 4.60 |
| O=C1/C(=C/c2cccc(Cl)c2)CCc2ccccc21 | pIC50 | 4.77 |

a = O=C1/C(=C/c2ccc(Cl)cc2)CCc2ccccc21
b = O=C1/C(=C/c2cccc(Br)c2)CCCc2ccccc21
[ask] Of a versus b , which is the one with smaller reported pIC50? Let me know the label of the one you choose.
[reply] a

---

- System: P388
- procedure summary: Average potency against P388 cells
- Type: functional, Mus musculus
reported metric: AP (µM)
Provide only the numeric value, understood in µM.

| smiles text | meas value |
| --- | --- |
| O=C1CCCCC/C1=C\c1ccc(Br)cc1 | 34.5 |
| O=C1/C(=C/c2ccccc2)Cc2ccccc21 | 42.9 |
| O=C1CCCCC/C1=C\c1ccc([N+](=O)[O-])cc1 | 34.5 |
| COc1ccc(/C=C2\CCCCCC2=O)cc1 | 34.5 |
| CN(C)c1ccc(/C=C2\CCCc3ccccc3C2=O)cc1 | 11.2 |

[ask] What value of measured AP is listed for Cc1ccc(/C=C2\CCCCCC2=O)cc1 ?
[reply] 34.5

[ask] What value of measured AP is listed for O=C1CCCCC/C1=C\c1cccc([N+](=O)[O-])c1 ?
[reply] 34.5

[ask] What value of measured AP is listed for CN(C)c1ccc(/C=C2\CCCCCC2=O)cc1 ?
[reply] 34.5

[ask] What value of measured AP is listed for O=C1/C(=C/c2ccc([N+](=O)[O-])cc2)CCCc2ccccc21 ?
[reply] 11.2

[ask] What value of measured AP is listed for O=C1CCCCC/C1=C\c1ccccc1 ?
[reply] 34.5

[ask] What value of measured AP is listed for Cc1ccc(/C=C2\Cc3ccccc3C2=O)cc1 ?
[reply] 42.9

[ask] What value of measured AP is listed for Cc1cccc(/C=C2\CCCCCC2=O)c1 ?
[reply] 34.5

[ask] What value of measured AP is listed for O=C1CCCCC/C1=C\c1ccc(F)cc1 ?
[reply] 34.5

[ask] What value of measured AP is listed for Cc1cccc(/C=C2\CCc3ccccc3C2=O)c1 ?
[reply] 20.9

[ask] What value of measured AP is listed for COc1cccc(/C=C2\Cc3ccccc3C2=O)c1 ?
[reply] 42.9

[ask] What value of measured AP is listed for O=C1/C(=C/c2ccc(Br)cc2)CCc2ccccc21 ?
[reply] 20.9

[ask] What value of measured AP is listed for O=C1/C(=C/c2cccc(Br)c2)CCCc2ccccc21 ?
[reply] 11.2

[ask] What value of measured AP is listed for CN(C)c1ccc(/C=C2\CCc3ccccc3C2=O)cc1 ?
[reply] 20.9

[ask] What value of measured AP is listed for COc1cccc(/C=C2\CCCCCC2=O)c1 ?
[reply] 34.5

[ask] What value of measured AP is listed for O=C1/C(=C/c2ccc(Cl)cc2)Cc2ccccc21 ?
[reply] 42.9

[ask] What value of measured AP is listed for CN(C)c1ccc(/C=C2\Cc3ccccc3C2=O)cc1 ?
[reply] 42.9

[ask] What value of measured AP is listed for O=C1/C(=C/c2cccc([N+](=O)[O-])c2)CCCc2ccccc21 ?
[reply] 11.2

[ask] What value of measured AP is listed for O=C1/C(=C/c2ccc(Cl)cc2)CCCc2ccccc21 ?
[reply] 11.2

---

Quick list: AP per entry.
- Tested on: L1210
- procedure summary: Average potency against L1210 cells
- Format: functional, Mus musculus
Provide only the numeric value, understood in µM.

Please review the entries below; each comes with its answer.
| smiles text | unit of measure | AP |
| --- | --- | --- |
| O=C1/C(=C/c2ccc(F)cc2)CCCc2ccccc21 | µM | 85.2 |
| O=C1CCCCC/C1=C\c1ccccc1 | µM | 227 |
| Cc1ccc(/C=C2\Cc3ccccc3C2=O)cc1 | µM | 127 |

Turning to the following compound.
[ask] What value of measured AP is listed for O=C1/C(=C/c2cccc(Cl)c2)CCc2ccccc21 ?
[reply] 135

---

Quick list: AP per entry.
- System: MOLT-4
- procedure summary: Average potency against Molt4/C8cells
- Format: functional, Homo sapiens
Provide only the numeric value, understood in µM.

[ask] What value of measured AP is listed for O=C1/C(=C/c2cccc([N+](=O)[O-])c2)CCc2ccccc21 ?
[reply] 158

[ask] What value of measured AP is listed for O=C1CCCCC/C1=C\c1ccc(Cl)cc1 ?
[reply] 186

[ask] What value of measured AP is listed for O=C1CCCCC/C1=C\c1ccc(Br)cc1 ?
[reply] 186

[ask] What value of measured AP is listed for O=C1/C(=C/c2cccc([N+](=O)[O-])c2)Cc2ccccc21 ?
[reply] 267

[ask] What value of measured AP is listed for O=C1/C(=C/c2cccc(Cl)c2)CCc2ccccc21 ?
[reply] 158

[ask] What value of measured AP is listed for Cc1ccc(/C=C2\CCc3ccccc3C2=O)cc1 ?
[reply] 158

[ask] What value of measured AP is listed for O=C1/C(=C/c2ccccc2)Cc2ccccc21 ?
[reply] 267

[ask] What value of measured AP is listed for O=C1/C(=C/c2cccc(F)c2)CCc2ccccc21 ?
[reply] 158

[ask] What value of measured AP is listed for CN(C)c1ccc(/C=C2\Cc3ccccc3C2=O)cc1 ?
[reply] 267

[ask] What value of measured AP is listed for O=C1/C(=C/c2ccccc2)CCc2ccccc21 ?
[reply] 158

[ask] What value of measured AP is listed for O=C1CCCCC/C1=C\c1cccc([N+](=O)[O-])c1 ?
[reply] 186

---

- System: CCRF-CEM
- procedure summary: Inhibitory activity was tested against CEM cells
- Format: functional, cell-based
- experimental context: Homo sapiens
reported metric: IC50 (µM)

| smiles text | IC50 / µM |
| --- | --- |
| Cc1ccc(/C=C2\CCCc3ccccc3C2=O)cc1 | 11.4 |
| O=C1/C(=C/c2cccc(Br)c2)CCCc2ccccc21 | 8.9 |
| CN(C)c1ccc(/C=C2\Cc3ccccc3C2=O)cc1 | 41 |
| O=C1CCCCC/C1=C\c1ccc(Cl)cc1 | 43.5 |
| O=C1CCCCC/C1=C\c1ccccc1 | 110 |

P = COc1ccc(/C=C2\CCCCCC2=O)cc1
Q = COc1ccc(/C=C2\CCc3ccccc3C2=O)cc1
R = COc1ccc(/C=C2\CCCc3ccccc3C2=O)cc1
[ask] Order the records so the highest IC50 appears first and the lowest last. Answer by listing the labels in the order asked for.
[reply] P, Q, R
(P: 194 µM, Q: 8.84 µM, R: 0.35 µM)

P = O=C1/C(=C/c2ccccc2)CCc2ccccc21
Q = O=C1/C(=C/c2cccc(Cl)c2)Cc2ccccc21
[ask] Of P versus Q , which is the one with smaller reported IC50? Let me know the label of the one you choose.
[reply] P
(P: 7.42 µM, Q: 31.8 µM)

A = CN(C)c1ccc(/C=C2\CCc3ccccc3C2=O)cc1
B = COc1cccc(/C=C2\CCc3ccccc3C2=O)c1
[ask] // pick larger IC50 from pair: A vs B Let me know the label of the one you choose.
[reply] B
(B: 8.78 µM, A: 1.65 µM)

1 = O=C1/C(=C/c2cccc([N+](=O)[O-])c2)Cc2ccccc21
2 = O=C1/C(=C/c2ccccc2)CCCc2ccccc21
[ask] // pick larger IC50 from pair: 1 vs 2 Let me know the label of the one you choose.
[reply] 1

I = Cc1cccc(/C=C2\CCc3ccccc3C2=O)c1
II = O=C1/C(=C/c2cccc(Br)c2)Cc2ccccc21
III = O=C1CCCCC/C1=C\c1cccc(Br)c1
[ask] Please order the records by their reported IC50, lowest number first. Answer by listing the labels in the order asked for.
[reply] I, II, III
(I: 9.41 µM, II: 32.4 µM, III: 137 µM)

I = O=C1/C(=C/c2ccc(F)cc2)Cc2ccccc21
II = Cc1ccc(/C=C2\Cc3ccccc3C2=O)cc1
[ask] Of I versus II , which is the one with smaller reported IC50? Let me know the label of the one you choose.
[reply] I
(I: 42.2 µM, II: 67.1 µM)

---

- Test system: MOLT-4
- procedure summary: Average potency against Molt4/C8cells
- Type: functional, Homo sapiens
reported metric: AP (µM)
Provide only the numeric value, understood in µM.

| smiles text | target entity | reported metric | unit of measure | meas value |
| --- | --- | --- | --- | --- |
| Cc1cccc(/C=C2\CCCc3ccccc3C2=O)c1 | MOLT-4 | AP | µM | 66 |
| O=C1/C(=C/c2ccccc2)CCCc2ccccc21 | MOLT-4 | AP | µM | 66 |

Turning to the following molecule.
[ask] What value of measured AP is listed for O=C1CCCCC/C1=C\c1cccc(Br)c1 ?
[reply] 186

Values compiled from ChEMBL document CHEMBL1132632.
